Tgt: human FPR1 (Homo sapiens (Human), UniProt P21462)
Sequence (P21462 whole entry): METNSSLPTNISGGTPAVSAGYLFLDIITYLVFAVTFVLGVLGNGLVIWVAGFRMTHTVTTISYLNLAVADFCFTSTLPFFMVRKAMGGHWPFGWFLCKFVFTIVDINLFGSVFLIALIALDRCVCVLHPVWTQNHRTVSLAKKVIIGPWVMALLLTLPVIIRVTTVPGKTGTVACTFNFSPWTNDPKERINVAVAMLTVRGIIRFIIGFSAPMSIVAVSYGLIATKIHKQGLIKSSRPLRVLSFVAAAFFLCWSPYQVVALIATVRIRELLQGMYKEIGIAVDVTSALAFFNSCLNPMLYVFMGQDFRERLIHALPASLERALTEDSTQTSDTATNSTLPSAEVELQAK
Experimental Details: FPR1 cyclic adenosine monophosphate (cAMP) assay
Assay type: cell-based
Assay Setup: CHO cells overexpressing human FPR1; forskolin 10 μM, IBMX 200 μM; inhibition of cAMP production, HTRF; read-out: hFPR1 cAMP EC50
pEC50: −log10 of the molar value.
Result Type: pEC50

COCCn1ccc(C)c(N2C[C@@H](c3c(F)cc(OC)cc3F)[C@H](NC(=O)NC3CCc4cc(Cl)ccc4C3)C2=O)c1=O (stereo partly drawn) ... 8.68

[A] COc1cc(F)c([C@@H]2CN(c3nccc(N4CCN5CCCC5C4)c3C(F)(F)F)C(=O)[C@H]2NC(=O)N[C@H]2CC[C@H](C(F)F)CC2)c(F)c1 (single isomer, unassigned) [Example 102]
[B] COc1cc(F)c([C@H]2[C@H](NC(=O)NC3CCc4cc(OC)ccc4C3)C(=O)N(c3ncccc3OC)[C@H]2C)c(F)c1 (stereo partly drawn) [Example 18]
Please choose the item with the lower pEC50 value from this pair: A and B Your answer should be the label of the entry you select. A
(A: 6.00, B: 9.70)
